Reference source for all entries: the supplement of paper PMC11018630

Tested on: RDEB dermal fibroblasts EB71
Assay: day of extracellular matrix detachment from plate (days); higher = delayed detachment (less fibrotic matrix)
Conditions: compound concentration: 10 uM
Where a name gives a salt, the structure may show the parent alone. In all, about 1,100 compounds were measured (“day of extracellular matrix detachment from plate”: median about 16, lowest 2% from about 10 on). For the sample, the lowest values were picked, then their nearest neighbours and some compounds at random.
propertyLabel: day of extracellular matrix detachment from plate

> print(dat)
                                   molecule  value
1  O=C(c1cc(Cc2n[nH]c(=O)c3ccccc23)ccc1F)N1CCN(C(=O)C2CC2)CC1   27.8
2  Cc1ccc(C(=O)C(C)CN2CCCCC2)cc1 (centres undefined) [Tolperisone HCl]     13
3  CC[C@H](Nc1ncnc2[nH]cnc12)c1nc2cccc(F)c2c(=O)n1-c1ccccc1   22.3
4  Cc1ccsc1C(=CCCN1CCC[C@@H](C(=O)O)C1)c1sccc1C [Tiagabine]     17
5  N#CC[C@H](C1CCCC1)n1cc(-c2ncnc3[nH]ccc23)cn1     16
6   O=c1sn(-c2cccc3ccccc23)c(=O)n1Cc1ccccc1   18.7
7  Cc1ccsc1C(=CCCN1CCC[C@@H](C(=O)O)C1)c1sccc1C [Tiagabine hydrochloride]   17.2
8  NC(=O)C(c1ccccc1)(c1ccccc1)[C@@H]1CCN(CCc2ccc3c(c2)CCO3)C1   23.2
9                            O=C(O)c1ccccc1     13
